- EXPERIMENTAL_TARGET: T1, PDZD7_3, Q9H5P4
- T1 sequence (Q9H5P4 857-944, limits assumed, looked up): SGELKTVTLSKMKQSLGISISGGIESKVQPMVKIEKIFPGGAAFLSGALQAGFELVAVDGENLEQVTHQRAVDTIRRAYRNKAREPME
- MEASUREMENT_DESCRIPTION: holdup assay
- Design: key: below the threshold = too weak to quantify, mostly under pKd 3.1 to 4
- ASSAY_SETUP: plain residues with an end cap or a label only (N-terminal biotin on a linker: ttds)
RECORDED_ENDPOINT: pKd

>>> result_number("KQVVPFSSSV [GDA, Q9Y2T3]")
3.59
>>> result_number("SSIDLWETAL [SLC15A5, A6NIM6]")
5.56
>>> result_number("DLDEEEDTHL [PODXL, O00592]")
3.59
>>> result_number("GARVSKETPL [MAPK12, P53778]")
3.86
>>> result_number("NPDALPETLV [ARHGAP6, O43182]")
5.61
>>> result_number("QRPYRRESEI [KCNJ12, Q14500]")
4.57
>>> result_number("KLVIKTETTV [RASSF6, Q6ZTQ3]")
4.39
>>> result_number("GRLLGLETNV [ARHGEF26, Q96DR7]")
4.11
>>> result_number("SRSRRRETAL [HPV33-E6, P06427]")
4.65
>>> result_number("PSRDRKETSI [RALBP1, Q15311]")
4.89
>>> result_number("SGGKRKETLV [NET1, Q7Z628]")
4.54
>>> result_number("SHSSKGETAV [FZD7, O75084]")
3.86
>>> result_number("PPRQRSETQV [HPV82-E6, Q9IR59]")
3.84
>>> result_number("FVETQHQTQV [FAT3, Q8TDW7]")
4.11
